tested on: SK-MEL-28 melanoma; test: NCI tumour cell line growth inhibition, 48 h
testReadout: TGI

Previously resolved entries follow.
Cc1nccc2c3ccc(OCc4cn(-c5ccc(Cl)cc5)nn4)cc3n(CC(C)C)c12
18.2 µM
COc1ccc(/C=C2\c3cc(OC)c(OC)c(OC)c3CC[C@@H]2O)cc1F
> 100 µM
CCOC(=O)C(C(O)c1ccc([N+](=O)[O-])cc1)P(=O)(OCC)OCC (stereo not given)
> 100 µM
CC(C)CCCC(C)[C@H]1CC[C@H]2N=C(NCc3ccccc3)CCC[C@]12C (stereo not given in full)
2.96 µM
CCN(CC)CCNc1ccc2nc(C)n3c4ccc(O)cc4c(=O)c1c23
11.3 µM

Turning now to a further record.
Query :: // returns reported TGI for input `CCCCCCCCOC(=O)c1cc([N+](=O)[O-])c(Sc2ncnc3nc[nH]c23)c([N+](=O)[O-])c1`
Result :: 42.8 µM

* * *

system: HCT-15 colon; test: NCI tumour cell line growth inhibition, 48 h
testReadout: TGI (µM)
// return numeric value only (unit: µM, not printed)

Cc1cc(Cl)cc(Cc2cc(Cl)cc(C)c2O)c1O
11.3

Query :: // returns reported TGI for input `Cc1ccc(S(=O)(=O)Nc2ccc(-c3cc(-c4cccc(F)c4)c(C#N)c(N)n3)cc2)cc1`
Result :: 4.86

* * *

system: KM20L2 colon; experiment: NCI tumour cell line growth inhibition, 48 h
Measured TGI of individual entries

CCOC1CC2OC(=O)C1C=C2C(=O)OC (configuration not stated)
> 100 µM
CC1=C2C3OC(=O)C(C)C3CCC2(C)C=CC1=Nc1ccccc1 (configuration not stated)
> 100 µM
CSCCC(C(=O)O)N(CC1(O)OCC(O)C(O)C1O)N=O (configuration not stated)
> 100 µM
COc1ccc(CCc2cc(OC)c(O)c(OC)c2)cc1
> 100 µM
CC1C2CC=CC(=O)[C@@]2(C)CCC12OCCO2 (some centres not stated)
> 100 µM

Query :: // returns reported TGI for input COC(=O)/C(=N\NC(N)=O)C(C(=O)C=C(C)C)C(=O)C(=O)Nc1ccc(Cl)c(Cl)c1 (configuration not stated)
Result :: > 100 µM

Query :: // returns reported TGI for input `CCN=C(C#N)NCC`
Result :: > 100 µM

Query :: // returns reported TGI for input `C/C(=N\NC(=O)CC(=O)N(C(=O)c1ccc(Cl)cc1)c1ccc(C)cc1)c1ccccc1O`
Result :: > 100 µM

* * *

test system: SK-OV-3 ovarian; assay: NCI tumour cell line growth inhibition, 48 h; in the data active = GI50 below about 0.43 µM; inactive = the rest
# valid calls are 1 (active), -1 (inactive); nothing else

Please review the following examples before continuing.
Fc1ccc(Nc2nc3ccccc3c3occc23)cc1
-1
N#CC1C(=O)NC(c2ccccc2[N+](=O)[O-])c2sc3c(F)cccc3c21 (stereo not given)
-1
CC1(C)N=C(N)N=C(N)N1c1cccc(Br)c1
-1
COc1cnc2c(c1)C(=O)c1c-2n(CCCN2CCNCC2)c(=O)c2cc([N+](=O)[O-])ccc12
1
O=C(/C=C/OC(=O)c1cccc(Cl)c1)c1ccc(Cl)cc1
-1
Nc1c(F)cc(-c2nc3cc(F)ccc3[se]2)cc1Br
-1

Query :: Tell me the assay call for CCCCCCCC(=O)[O][Hg][CH2]C1COC([CH2][Hg][O]C(=O)CCCCCCC)CO1 (stereo not given) please.
Result :: -1

Query :: Tell me the assay call for `Cc1ccc(S(=O)(=O)Nc2ccc(-c3cc(-c4cccc(F)c4)c(C#N)c(N)n3)cc2)cc1` please.
Result :: -1

Query :: Tell me the assay call for `COc1cc(/C=C/C(=O)c2c(C)nc3ccccc3c2C)ccc1OCCCN1CCN(C(=O)c2ccco2)CC1` please.
Result :: -1

Query :: Tell me the assay call for `CSc1ccc(C(=O)/C=C/c2ccccc2Cl)cc1` please.
Result :: -1

Query :: Tell me the assay call for `C/C(=N/N=C(N)N)c1ccc(NC(=O)Nc2ccc(/C(C)=N/N=C(N)N)cc2)cc1` please.
Result :: -1

* * *

tested on: SK-MEL-5 melanoma; test: NCI tumour cell line growth inhibition, 48 h; in the data active = GI50 below about 0.43 µM; inactive = the rest
# valid calls are 1 (active), 0 (inactive); nothing else

Please review the following examples before continuing.
CCCCCCCC(=O)[O][Hg][CH2]C1COC([CH2][Hg][O]C(=O)CCCCCCC)CO1 (configuration not stated)
0
CCCCCC[C@H](C)NC(=O)c1ccc(Nc2nc3ccccc3c3occc23)cc1
0
CCCN1CCC(c2ccc(Nc3nc(Nc4cc(F)ccc4C(N)=O)c4cc[nH]c4n3)c(OC)c2)CC1
0

Query :: Tell me the assay call for `COC1=CC(=O)c2nc(Cl)ccc2C1=O` please.
Result :: 0

Query :: Tell me the assay call for `C#Cc1cccc(NC(=O)c2ccc(NC(=O)CCl)cc2)c1` please.
Result :: 0

Query :: Tell me the assay call for `CC1(C)N=C(N)N=C(N)N1c1cccc(Br)c1` please.
Result :: 0

Query :: Tell me the assay call for `COC(=O)[C@]12CC[C@@H](C)[C@H](C)[C@@H]1C1=CC[C@@H]3[C@@]4(C)C(C=O)=C[C@@](C)(COC(=O)/C=C/c5ccccc5)[C@@H]4[C@H](O)C[C@@]3(C)[C@]1(C)CC2` please.
Result :: 0

Query :: Tell me the assay call for `CCn1ccc(NS(=O)(=O)c2ccc(N)cc2)nc1=O` please.
Result :: 0

* * *

system: CCRF-CEM leukemia; test: NCI tumour cell line growth inhibition, 48 h; in the data active means GI50 below about 0.43 µM; inactive means the rest
# valid calls are class 1 = active, class 0 = inactive; nothing else

Please review the following examples before continuing.
CN(C)CCOC(=O)Nc1nc2ccc(Sc3ccccc3)cc2[nH]1
class 0
CCCCCC[C@H](C)NC(=O)c1ccc(Nc2nc3ccccc3c3occc23)cc1
class 0
Cn1c2ccccc2c2c(=O)n(CCCC(=O)OC(=NC3CCCCC3)NC3CCCCC3)c3c(-c4ccccc4)nnn3c21
class 0
CN1CCN(Cc2ccc(NC(=O)c3cncc(C#Cc4cnc(N)c5cnccc45)c3)cc2C(F)(F)F)CC1
class 1
N#CC1C(=O)NC(c2ccccc2[N+](=O)[O-])c2sc3c(F)cccc3c21 (stereo not drawn)
class 0
O=C1C2C3C=CC(C2C(=O)N1CN1CCSCC1)C1C2C(=O)N(CN4CCSCC4)C(=O)C2C31 (stereo not drawn)
class 0

Query :: Tell me the assay call for `COc1cc2c(cc1C)NC(=O)/C2=C\c1c[nH]c2ccccc12` please.
Result :: class 0

Query :: Tell me the assay call for `COCc1c(-c2ccc(NC(=O)Nc3cc(C(F)(F)F)ccc3F)c(F)c2)c2c(N)ncnn2c1CN1CCOCC1` please.
Result :: class 0

Query :: Tell me the assay call for `O=C(/C=C/OC(=O)c1cccc(Cl)c1)c1ccc(Cl)cc1` please.
Result :: class 0

* * *

tested on: MDA-MB-231 breast; test: NCI tumour cell line growth inhibition, 48 h
testReadout: TGI

Previously resolved entries follow.
O=Nc1c(O)cc(Nc2cccnc2)c2ccccc12
47.3 µM
COc1ccc(/C=C2\c3cc(OC)c(OC)c(OC)c3CC[C@@H]2O)cc1F
> 100 µM

Query :: // returns reported TGI for input `CN(C)c1ccc(/C=C/c2cc(-c3ccccc3)[n+](C)n2-c2ccccc2)cc1`
Result :: 17.2 µM

Query :: // returns reported TGI for input `CSc1ccc(C(=O)/C=C/c2ccccc2Cl)cc1`
Result :: 31.2 µM

Query :: // returns reported TGI for input `CC(C)[C@@H](C)[C@@]1(C)C[C@@H]1[C@@H](C)[C@H]1CC[C@@H]([C@@H]2CC=C3C[C@@H](O)CC[C@]3(C)C2=O)[C@]1(C)CCO`
Result :: 28 µM

Query :: // returns reported TGI for input `COCc1c(-c2ccc(NC(=O)Nc3cc(C(F)(F)F)ccc3F)c(F)c2)c2c(N)ncnn2c1CN1CCOCC1`
Result :: > 10 µM

Query :: // returns reported TGI for input `CN(C)CCNC(=O)NC[C@H]1CC[C@@H]2[C@H](O1)c1cc(C(F)(F)F)ccc1N[C@H]2c1ccccc1`
Result :: 3.6 µM

* * *

Measured TGI of individual entries
system: RXF-631 renal; assay: NCI tumour cell line growth inhibition, 48 h

Previously resolved entries follow.
CCOP1(=O)C=C(C)C(=C(Cl)Cl)C(C)=C1 (centres undefined)
64.5 µM
COc1ccc(CCc2cc(OC)c(O)c(OC)c2)cc1
> 100 µM
O=C1C=CC2(C=C1)C[C@H](NC(=O)OCc1ccccc1)C(=O)O2
40.8 µM

Query :: // returns reported TGI for input C=CCN(N=O)C(=O)NCCCCC(NC(C)=O)C(=O)NCc1ccccc1 (centres undefined)
Result :: > 100 µM

Query :: // returns reported TGI for input CCOC(=O)C(C(O)c1ccc([N+](=O)[O-])cc1)P(=O)(OCC)OCC (centres undefined)
Result :: > 100 µM

Query :: // returns reported TGI for input `c1ccc2c(NCCCCCCNc3cccc4ccccc34)cccc2c1`
Result :: > 100 µM

Query :: // returns reported TGI for input CSCCC(C(=O)O)N(CC1(O)OCC(O)C(O)C1O)N=O (centres undefined)
Result :: > 100 µM

Query :: // returns reported TGI for input Cc1ccccc1C1CC(c2ccccc2)=NO1 (centres undefined)
Result :: > 100 µM

Query :: // returns reported TGI for input `C/C(=N\NC(=O)CC(=O)N(C(=O)c1ccc(Cl)cc1)c1ccc(C)cc1)c1ccccc1O`
Result :: > 100 µM
